meta.source: patent US20030148956A1

Target: corticotropin releasing factor 1 receptor
Assay: cell-based or functional assay
Ends that are not written are not given here.
observation type: CRF1R EC50 (µM)
Answers are plain numbers, in µM.

# CRF1R EC50 (binder: ZGPPISIDLPTWLLRKVIEIEKQEKEKQQAANNARLLARI (C-terminal amide) [SEQ ID NO 291] ) is 1

Hello, I would appreciate it if you could give CRF1R EC50 for each entry below.
1. IVLSLDVPIGLLQILLEKAAAEAEAAAKAAQEQILAHV-NH2 [SEQ ID NO 366]
2. ZGPPISIDLPFQLLRKAIEIEKQEKEKQQAANNALLLATI (C-terminal amide) [SEQ ID NO 364]
3. ZGPPISIDLPFQLLRKVIEIEKQEKEKQQAANNAQLLAHI (C-terminal amide) [SEQ ID NO 273]
4. DNPSLSIDLPLFLLRTLLELARTQSQRERAEQNARIFARV-NH2 [SEQ ID NO 329]
5. ZGPPISIDVPYHLLRKVIEIEKQEKEKQQAANNARLLARI (C-terminal amide) [SEQ ID NO 377]
6. ZGPPISIDLPLYLLRKMIEIEKQEKEKQQATTNARILARV (C-terminal amide) [SEQ ID NO 353]
7. PSLSIDLPLLLLRTLLELEKTQSQRERAEQNAIIFASV-NH2 [SEQ ID NO 344]

[1, 1, 1, 1, 1, 0.23, 0.65]
